A collection of compounds and their measured IC50
# tested.on: UniProtKB Q5VWK5
# Sequence (Q5VWK5 24-629): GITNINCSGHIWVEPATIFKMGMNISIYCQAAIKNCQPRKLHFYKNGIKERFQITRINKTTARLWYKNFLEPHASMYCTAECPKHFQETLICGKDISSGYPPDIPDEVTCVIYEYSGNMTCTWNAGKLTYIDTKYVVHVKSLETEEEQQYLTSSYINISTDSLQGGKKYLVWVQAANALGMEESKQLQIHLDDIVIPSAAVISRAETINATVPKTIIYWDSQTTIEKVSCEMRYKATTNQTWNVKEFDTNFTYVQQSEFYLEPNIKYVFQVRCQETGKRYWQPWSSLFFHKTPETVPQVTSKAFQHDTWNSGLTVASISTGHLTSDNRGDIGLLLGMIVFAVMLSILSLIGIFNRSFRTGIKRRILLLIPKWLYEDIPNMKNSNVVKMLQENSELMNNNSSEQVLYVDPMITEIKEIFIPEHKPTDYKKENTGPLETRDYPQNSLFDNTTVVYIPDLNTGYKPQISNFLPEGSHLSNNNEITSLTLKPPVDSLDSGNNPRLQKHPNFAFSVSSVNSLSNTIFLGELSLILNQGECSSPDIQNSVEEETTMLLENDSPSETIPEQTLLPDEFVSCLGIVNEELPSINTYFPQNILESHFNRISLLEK
# test.name: DB cells IL23R pSTAT3 cell assay (pStat3 HTRF)
# Format: cell-based
# measurement.parameters: Table E3; DB cells, IL-23 0.5 nM, 30 minutes at 37° C.; read-out: pStat3 HTRF (IC50)
Bridge positions count the residues as written; N and C are the ends. Square brackets hold non-standard residues; d marks the D form. Peptide text beside a SMILES is read from it. Trp(7-Me) = Cc1cccc2c(C[C@H](N)C(=O)O)c[nH]c12; 2Nal = N[C@@H](Cc1ccc2ccccc2c1)C(=O)O; AEF = NCCOc1ccc(C[C@H](N)C(=O)O)cc1; Cit = NC(=O)NCCC[C@H](N)C(=O)O; Pen = CC(C)(S)[C@H](N)C(=O)O; αMeK = C[C@](N)(CCCCN)C(=O)O; βAla = NCCC(=O)O; Sar = CNCC(=O)O

{"compound": "CC(=O)NCCCC[C@H](NC(=O)[C@](C)(CC(C)C)NC(=O)[C@H](Cc1ccc2ccccc2c1)NC(=O)[C@H](Cc1ccc(OCCN)cc1)NC(=O)[C@H]1NC(=O)[C@H](CCC(N)=O)NC(=O)[C@H](Cc2c[nH]c3c(C)cccc23)NC(=O)[C@H]([C@@H](C)O)NC(=O)[C@H](CC(N)=O)NC(=O)[C@@H](NC(C)=O)C(C)(C)SSC1(C)C)C(=O)NCCC(=O)NCCC(N)=O [compound 226]", "IC50": "10 to 100 nM"}
{"compound": "CC(=O)NCCCC[C@H](NC(=O)[C@](C)(CCCCN)NC(=O)[C@H](Cc1ccc2ccccc2c1)NC(=O)[C@H](Cc1ccc(OCCN)cc1)NC(=O)[C@H]1NC(=O)[C@H](CCCNC(N)=O)NC(=O)[C@H](Cc2c[nH]c3c(C)cccc23)NC(=O)[C@H]([C@@H](C)O)NC(=O)[C@H](CC(N)=O)NC(=O)[C@@H](NC(C)=O)C(C)(C)SSC1(C)C)C(=O)NCCC(=O)NCCC(N)=O [compound 268] (Ac-[Pen]NT[Trp(7-Me)][Cit][Pen][AEF][2Nal][αMeK]K(Ac)[βAla][βAla]-NH2; disulfide 1-6)", "IC50": "1 to 10 nM"}
{"compound": "CC(=O)NCCCC[C@H](NC(=O)[C@](C)(CCCCN)NC(=O)[C@H](Cc1ccc2ccccc2c1)NC(=O)[C@H](Cc1ccc(OCCN)cc1)NC(=O)[C@H]1NC(=O)[C@H](CCCNC(N)=O)NC(=O)[C@H](Cc2c[nH]c3c(C)cccc23)NC(=O)[C@H]([C@@H](C)O)NC(=O)[C@H](CC(N)=O)NC(=O)[C@@H](NC(C)=O)C(C)(C)SSC1(C)C)C(=O)N[C@@H](CC(N)=O)C(=O)N(C)CC(N)=O [compound 339] (Ac-[Pen]NT[Trp(7-Me)][Cit][Pen][AEF][2Nal][αMeK]K(Ac)N[Sar]-NH2; disulfide 1-6)", "IC50": "1 to 10 nM"}
